Field: Activity. Provide a value for each of the molecules that follow.
System: Plasmodium yoelii
testDescription: Antimalarial activity against chloroquine, mefloquine and halofantrine-resistant Plasmodium yoelii infected in Swiss mouse assessed as suppression of parasitemia at 12 mg/kg, po for 4 days by microscopic analysis relative to control
Type: functional
The figure you give is taken to be in %; do not add the unit.

Query: GET /values?readout=Activity&system=Plasmodium yoelii&item= `C[C@@H]1CC[C@H]2[C@@H](C)C(=O)N(OCc3ccccc3F)[C@@H]3O[C@@]4(C)CC[C@@H]1[C@@]23OO4`
Result: 89

Query: One more molecule: `C[C@@H]1CC[C@H]2[C@@H](C)C(=O)N(/N=C/c3ccc(C(F)(F)F)cc3)[C@@H]3O[C@@]4(C)CC[C@@H]1[C@@]23OO4`
Result: 100

Query: Item: `C[C@@H]1CC[C@H]2[C@@H](C)C(=O)N(NC(=O)c3ccc(Br)cc3)[C@@H]3O[C@@]4(C)CC[C@@H]1[C@@]23OO4`
Result: 100

Query: Repeat with `C[C@@H]1CC[C@H]2[C@@H](C)C(=O)N(NCc3ccccc3)[C@@H]3O[C@@]4(C)CC[C@@H]1[C@@]23OO4`
Result: 100

Query: Check `Cc1ccc(CNN2C(=O)[C@H](C)[C@@H]3CC[C@@H](C)[C@@H]4CC[C@@]5(C)OO[C@]43[C@H]2O5)cc1` too.
Result: 74

Query: Please do the same for `C[C@@H]1CC[C@H]2[C@@H](C)C(=O)N(OCc3ccccc3)[C@@H]3O[C@@]4(C)CC[C@@H]1[C@@]23OO4` as well.
Result: 100
